# assay-protocol: In Vitro Microsome Stability Assay (mouse)
# Type: in vitro ADME
# condition-description: mouse, 30 min, NADPH
property: Liver Microsome Stability-% Left after 30 min w/ NADPH (%) Mouse

# count of solved cases: 5
structure: C=C1CN(S(=O)(=O)c2ccc(N(C)C)cc2)CCCN(CC2CCCCC2)CCCN(S(=O)(=O)N2CCN(c3ccccc3)[C@H](C)C2)C1
unit-abbrev: %
obs-value: 3.63
//
structure: C[C@@H]1CN(S(=O)(=O)c2ccc(N(C)C)cc2)CCCN(CC2CCCCC2)CCCN(S(=O)(=O)N2CCC(c3ccccc3)CC2)C1
unit-abbrev: %
obs-value: 28.6
//
structure: C=C1CN(S(=O)(=O)c2ccc(N(C)C)cc2)CCCN(CC2CCCCC2)CCCN(S(=O)(=O)N2Cc3ccc(Cl)cc3C2)C1
unit-abbrev: %
obs-value: 17.1
//
structure: C[C@H]1CN(S(=O)(=O)c2ccc(N(C)C)cc2)CCCN(CC2CCCCC2)CCCN(S(=O)(=O)N2CCN(c3cccc(F)c3)CC2)C1
unit-abbrev: %
obs-value: 54.2
//
structure: C=C1CN(S(=O)(=O)c2ccc(N(C)C)cc2)CCCN(CC2CCCCC2)CCCN(S(=O)(=O)N2CCC(OC(C)C)CC2)C1
unit-abbrev: %
obs-value: 0.02

(A) C[C@H]1CN(S(=O)(=O)c2ccc(N(C)C)cc2)CCCN(CC2CCCCC2)CCCN(S(=O)(=O)N2CCC(Oc3ccccc3)CC2)C1
(B) Cc1ccc(S(=O)(=O)N2CCCN(CC3CCCCC3)CCCN(S(=O)(=O)c3ccc(N(C)C)cc3)CCC2)cc1
Given the listed items, does A or B have the lesser reported Liver Microsome Stability-% Left after 30 min w/ NADPH (%) Mouse? Identify your pick by its label. B

(1) Cc1cccc(N2CCN(S(=O)(=O)N3CCCN(CC4CCCCC4)CCCN(S(=O)(=O)c4ccc(N(C)C)cc4)C[C@H](C)C3)CC2)c1
(2) C[C@H]1CN(S(=O)(=O)c2ccc(N(C)C)cc2)CCCN(CC2CCCCC2)CCCN(S(=O)(=O)N2CCN(c3ncccn3)CC2)C1
Which gives the smaller Liver Microsome Stability-% Left after 30 min w/ NADPH (%) Mouse number: 1 or 2 ? Answer with the label corresponding to your selection. 2
(2: 0.4%, 1: 55.2%)

---

# assay-protocol: In Vitro Microsome Stability Assay (human)
# Format: in vitro ADME
# condition-description: human liver microsomes, 30 min w/ NADPH
property: Liver Microsome Stability-% Left after 30 min w/ NADPH (%) Human

compound: CN(C)c1ccc(S(=O)(=O)N2C/C=C/CN(S(=O)(=O)N3CCC(c4ccccc4)CC3)CCCN(CC3CCCCC3)CCC2)cc1
obs-value: 0.49

compound: CC1c2ccccc2CCN1S(=O)(=O)N1CCCN(CC2CCCCC2)CCCN(S(=O)(=O)c2ccc(N(C)C)cc2)C[C@H](C)C1 (some centres unmarked)
obs-value: 7.2

(1) C[C@H]1CN(S(=O)(=O)c2ccc(N(C)C)cc2)CCCN(CC(F)(F)F)CCCN(S(=O)(=O)N2CCc3cc(Cl)ccc3C2)C1
(2) C[C@H]1CN(S(=O)(=O)c2ccc(N(C)C)cc2)CCCN(CCC2CC2)CCCN(S(=O)(=O)N2CCc3cc(Cl)ccc3C2)C1
(3) C[C@H]1CN(S(=O)(=O)c2ccc3c(ccn3C)c2)CCCN(CC2CCCCC2)CCCN(S(=O)(=O)N2CCc3cc(Cl)ccc3C2)C1
List these items ordered by Liver Microsome Stability-% Left after 30 min w/ NADPH (%) Human, big to small. Answer by listing the labels in the requested order. 3, 1, 2
(3: 27%, 1: 5.68%, 2: 0.38%)
